Tested on: two-spotted spider mite (Tetranychus urticae)
Assay: Insecticidal test for two-spotted spider mite, ovicide method
Type: in vivo
Conditions: 2.5 ppm (table footnote), ovicide method on cotton leaf discs, 6 days
property: SM: activity at 2.5 ppm against two-spotted spider mite (% Control rating)

1) Cn1nc(-c2c(F)cccc2Cl)nc1-c1sc(C#Cc2cccc(F)c2F)c(Cl)c1Cl [Compound 27]    F (less than 50)
2) Cn1nc(-c2c(F)cccc2Cl)nc1-c1ccc(C#Cc2ccc(F)cc2)c(Cl)c1Cl [Compound 92]    F (less than 50)
3) CCCc1ccc(C#Cc2cc(C)c(-c3nc(-c4c(F)cccc4Cl)nn3C)s2)cc1 [Compound 72]    F (less than 50)

###

Tested on: cotton aphid (Aphis gossvpii)
Assay: Insecticidal test for cotton aphid (squash cotyledon spray)
Assay type: in vivo
Conditions: 50 ppm spray on infested squash cotyledons, 3 days, population reduction versus untreated
property: CA: activity at 50 ppm against cotton aphid (% Control rating)

// worked examples, CA: activity at 50 ppm against cotton aphid (% Control rating) included
1. CCCCCCCOc1ccc(C#Cc2sc(-c3nc(-c4c(F)cccc4Cl)nn3C)c(Cl)c2Cl)cc1 [Compound 56]    E (50-59)
2. Cc1cccnc1C#Cc1sc(-c2nc(-c3c(F)cccc3Cl)nn2C)c(Cl)c1Cl [Compound 45]    F (less than 50)
3. CCCOc1ccc(C#Cc2sc(-c3nc(-c4c(F)cccc4Cl)nn3C)c(Cl)c2Cl)cc1 [Compound 15]    D (60-69)
4. Cn1nc(-c2c(F)cccc2Cl)nc1-c1sc(C#Cc2ccc(-c3ccccc3)cc2)c(Cl)c1Cl [Compound 16]    F (less than 50)
5. Cc1ccsc1C#Cc1sc(-c2nc(-c3c(F)cccc3Cl)nn2C)c(Cl)c1Cl [Compound 36]    E (50-59)

Summary: CCCc1ccc(C#Cc2cc(C)c(-c3nc(-c4c(F)cccc4Cl)nn3C)s2)cc1 [Compound 72] , cotton aphid (Aphis gossvpii), CA: activity at 50 ppm against cotton aphid (% Control rating) = C (70-79)

Summary: Cn1nc(-c2c(F)cccc2Cl)nc1-c1sc(C#Cc2ccc(F)cc2)c(Cl)c1Cl [Compound 12] , cotton aphid (Aphis gossvpii), CA: activity at 50 ppm against cotton aphid (% Control rating) = C (70-79)

###

System: Brown Planthopper (Nilaparvata lugens)
Assay: Insecticidal test for Brown Planthopper (rice seedling roots in test solution)
Type: in vivo
Conditions: 10 ppm test solution, rice seedling roots, 3rd instar nymphs, mortality at 6 days
property: BPH: activity at 10 ppm against brown planthopper (% Control rating)

// worked examples, BPH: activity at 10 ppm against brown planthopper (% Control rating) included
1. Cn1nc(-c2c(F)cccc2Cl)nc1-c1sc(C#Cc2ccc(Cl)cn2)c(Cl)c1Cl    F (less than 50)
2. CCCc1ccc(C#Cc2cc(C)c(-c3nc(-c4c(F)cccc4Cl)nn3C)s2)cc1    F (less than 50)
3. Cc1cccnc1C#Cc1sc(-c2nc(-c3c(F)cccc3Cl)nn2C)c(Cl)c1Cl    F (less than 50)
4. Cn1nc(-c2c(F)cccc2Cl)nc1-c1ccc(C#Cc2ccc(F)cc2)c(Cl)c1Cl    F (less than 50)

molecule COc1ccc(C#Cc2sc(-c3nc(-c4c(F)cccc4Cl)nn3C)c(Cl)c2Cl)cc1Cl , BPH: activity at 10 ppm against brown planthopper (% Control rating) observed: F (less than 50)

molecule CCCCCCCOc1ccc(C#Cc2sc(-c3nc(-c4c(F)cccc4Cl)nn3C)c(Cl)c2Cl)cc1 , BPH: activity at 10 ppm against brown planthopper (% Control rating) observed: F (less than 50)

molecule Cn1nc(-c2c(F)cccc2Cl)nc1-c1sc(C#Cc2ccccn2)c(Cl)c1Cl , BPH: activity at 10 ppm against brown planthopper (% Control rating) observed: F (less than 50)

molecule CCCc1ccc(C#Cc2ccc(-c3nc(-c4c(F)cccc4Cl)nn3C)cc2)cc1 , BPH: activity at 10 ppm against brown planthopper (% Control rating) observed: F (less than 50)

molecule Cn1nc(-c2ccccc2F)nc1-c1sc(C#Cc2ccc(F)cc2)c(Cl)c1Cl , BPH: activity at 10 ppm against brown planthopper (% Control rating) observed: F (less than 50)

molecule CCC#Cc1sc(-c2nc(-c3c(F)cccc3Cl)nn2C)c(Cl)c1Cl , BPH: activity at 10 ppm against brown planthopper (% Control rating) observed: F (less than 50)

molecule Cc1ccncc1C#Cc1sc(-c2nc(-c3c(F)cccc3Cl)nn2C)c(Cl)c1Cl , BPH: activity at 10 ppm against brown planthopper (% Control rating) observed: F (less than 50)

###

Test system: Brown Planthopper (Nilaparvata lugens)
Experiment: Insecticidal test for Brown Planthopper (rice seedling roots in test solution)
Format: in vivo
Settings: 10 ppm test solution, rice seedling roots, 3rd instar nymphs, mortality at 6 days
property: BPH: activity at 10 ppm against brown planthopper (% Control rating)

// worked examples, BPH: activity at 10 ppm against brown planthopper (% Control rating) included
1. Cn1nc(-c2c(F)cccc2Cl)nc1-c1sc(C#C[Si](C)(C)C)c(Cl)c1Cl [Compound 1]    F (less than 50)
2. C#Cc1sc(-c2nc(-c3c(F)cccc3Cl)nn2C)c(Cl)c1Cl [Compound 2]    D (60-69)
3. Cn1nc(-c2c(F)cccc2Cl)nc1-c1sc(C#Cc2ccc(F)cc2)c(Cl)c1Cl [Compound 12]    F (less than 50)
4. Cn1nc(-c2c(F)cccc2Cl)nc1-c1sc(C#Cc2ccc(Br)cc2OC(F)(F)F)c(Cl)c1Cl [Compound 59]    F (less than 50)
5. CCN(CC)c1ncc(C#Cc2sc(-c3nc(-c4c(F)cccc4Cl)nn3C)c(Cl)c2Cl)cn1 [Compound 41]    E (50-59)
6. Cc1ccc(C#Cc2sc(-c3nc(-c4c(F)cccc4Cl)nn3C)c(Cl)c2Cl)nc1 [Compound 58]    F (less than 50)
7. Cc1ccsc1C#Cc1sc(-c2nc(-c3c(F)cccc3Cl)nn2C)c(Cl)c1Cl [Compound 36]    D (60-69)
8. Cn1nc(-c2c(F)cccc2Cl)nc1-c1sc(C#Cc2cccc(F)c2F)c(Cl)c1Cl [Compound 27]    E (50-59)
9. Cn1nc(-c2c(F)cccc2Cl)nc1-c1sc(C#Cc2ccccc2F)c(Cl)c1Cl [Compound 9]    F (less than 50)
10. CCCc1ccc(C#Cc2sc(-c3nc(-c4ccccc4F)nn3C)c(Cl)c2Cl)cc1 [Compound 76]    F (less than 50)

Summary: CCCOc1ccc(C#Cc2sc(-c3nc(-c4c(F)cccc4Cl)nn3C)c(Cl)c2Cl)cc1 [Compound 15] , Brown Planthopper (Nilaparvata lugens), BPH: activity at 10 ppm against brown planthopper (% Control rating) = F (less than 50)

Summary: CCOc1ccc(C#Cc2sc(-c3nc(-c4c(F)cccc4Cl)nn3C)c(Cl)c2Cl)cc1C(F)(F)F [Compound 49] , Brown Planthopper (Nilaparvata lugens), BPH: activity at 10 ppm against brown planthopper (% Control rating) = F (less than 50)

Summary: Cn1nc(-c2c(F)cccc2Cl)nc1-c1sc(C#Cc2ccsc2)c(Cl)c1Cl [Compound 46] , Brown Planthopper (Nilaparvata lugens), BPH: activity at 10 ppm against brown planthopper (% Control rating) = F (less than 50)

Summary: Cn1nc(-c2c(F)cccc2Cl)nc1-c1sc(C#Cc2ccc(C(F)(F)F)cn2)c(Cl)c1Cl [Compound 62] , Brown Planthopper (Nilaparvata lugens), BPH: activity at 10 ppm against brown planthopper (% Control rating) = F (less than 50)

Summary: Cc1nc(-c2sc(C#Cc3ccc(F)cc3)c(Cl)c2Cl)n(C)n1 [Compound 78] , Brown Planthopper (Nilaparvata lugens), BPH: activity at 10 ppm against brown planthopper (% Control rating) = F (less than 50)

Summary: Cn1nc(-c2c(F)cccc2Cl)nc1-c1ccc(C#Cc2ccccc2)s1 [Compound 68] , Brown Planthopper (Nilaparvata lugens), BPH: activity at 10 ppm against brown planthopper (% Control rating) = F (less than 50)

###

Tested on: cotton aphid (Aphis gossvpii)
Test: Insecticidal test for cotton aphid (squash cotyledon spray)
Type: in vivo
Conditions: 50 ppm spray on infested squash cotyledons, 3 days, population reduction versus untreated
property: CA: activity at 50 ppm against cotton aphid (% Control rating)

1. CCCCn1nc(-c2c(F)cccc2Cl)nc1-c1sc(C#Cc2ccc(CCC)cc2)c(Cl)c1Cl    F (less than 50)
2. CCOc1ccc(C#Cc2sc(-c3nc(-c4c(F)cccc4Cl)nn3C)c(Cl)c2Cl)cc1C(F)(F)F    F (less than 50)
3. Cn1nc(-c2c(F)cccc2Cl)nc1-c1sc(C#Cc2ccc(F)c(C(F)(F)F)c2)c(Cl)c1Cl    C (70-79)
4. Cn1nc(-c2ccccc2F)nc1-c1sc(C#Cc2ccc(F)cc2)c(Cl)c1Cl    F (less than 50)
5. Cc1ccnc(C#Cc2sc(-c3nc(-c4c(F)cccc4Cl)nn3C)c(Cl)c2Cl)c1    F (less than 50)
6. Cn1nc(-c2c(F)cccc2Cl)nc1-c1sc(C#Cc2ccc(Cl)cn2)c(Cl)c1Cl    F (less than 50)
7. Cn1nc(-c2c(F)cccc2Cl)nc1-c1ccc(C#Cc2ccc(F)cc2)c(Cl)c1Cl    A (90-100)
8. Cn1nc(-c2c(F)cccc2Cl)nc1-c1ccc(C#Cc2ccccc2)s1    A (90-100)

compound Cn1nc(-c2c(F)cccc2Cl)nc1-c1ccc(C#Cc2ccccc2F)s1 , CA: activity at 50 ppm against cotton aphid (% Control rating) observed: E (50-59)

compound C=C(C)C#Cc1sc(-c2nc(-c3c(F)cccc3Cl)nn2C)c(Cl)c1Cl , CA: activity at 50 ppm against cotton aphid (% Control rating) observed: D (60-69)

compound CCCc1ccc(C#Cc2ccc(-c3nc(-c4c(F)cccc4Cl)nn3C)cc2)cc1 , CA: activity at 50 ppm against cotton aphid (% Control rating) observed: A (90-100)

compound Cc1c(C#Cc2ccccc2)csc1-c1nc(-c2c(F)cccc2Cl)nn1C , CA: activity at 50 ppm against cotton aphid (% Control rating) observed: A (90-100)

compound CCCCC#Cc1cncc(-c2nc(-c3c(Cl)cncc3Cl)nn2C)c1 , CA: activity at 50 ppm against cotton aphid (% Control rating) observed: E (50-59)

compound CCCc1ccc(C#Cc2sc(-c3nc(-c4c(F)cccc4Cl)nn3C)c(Cl)c2Cl)cc1 , CA: activity at 50 ppm against cotton aphid (% Control rating) observed: A (90-100)

Values compiled from patent US6417187B2.
